TARGET_SYSTEM: HsTRPA1 (Homo sapiens)
Construct: cDNA construct from Saito and Tominaga, cRNA injected into Xenopus laevis oocytes; UniProt id printed for the modelled HsTRPA1 (residues 401-1119)
Sequence (O75762 whole entry, the tested form may be a part): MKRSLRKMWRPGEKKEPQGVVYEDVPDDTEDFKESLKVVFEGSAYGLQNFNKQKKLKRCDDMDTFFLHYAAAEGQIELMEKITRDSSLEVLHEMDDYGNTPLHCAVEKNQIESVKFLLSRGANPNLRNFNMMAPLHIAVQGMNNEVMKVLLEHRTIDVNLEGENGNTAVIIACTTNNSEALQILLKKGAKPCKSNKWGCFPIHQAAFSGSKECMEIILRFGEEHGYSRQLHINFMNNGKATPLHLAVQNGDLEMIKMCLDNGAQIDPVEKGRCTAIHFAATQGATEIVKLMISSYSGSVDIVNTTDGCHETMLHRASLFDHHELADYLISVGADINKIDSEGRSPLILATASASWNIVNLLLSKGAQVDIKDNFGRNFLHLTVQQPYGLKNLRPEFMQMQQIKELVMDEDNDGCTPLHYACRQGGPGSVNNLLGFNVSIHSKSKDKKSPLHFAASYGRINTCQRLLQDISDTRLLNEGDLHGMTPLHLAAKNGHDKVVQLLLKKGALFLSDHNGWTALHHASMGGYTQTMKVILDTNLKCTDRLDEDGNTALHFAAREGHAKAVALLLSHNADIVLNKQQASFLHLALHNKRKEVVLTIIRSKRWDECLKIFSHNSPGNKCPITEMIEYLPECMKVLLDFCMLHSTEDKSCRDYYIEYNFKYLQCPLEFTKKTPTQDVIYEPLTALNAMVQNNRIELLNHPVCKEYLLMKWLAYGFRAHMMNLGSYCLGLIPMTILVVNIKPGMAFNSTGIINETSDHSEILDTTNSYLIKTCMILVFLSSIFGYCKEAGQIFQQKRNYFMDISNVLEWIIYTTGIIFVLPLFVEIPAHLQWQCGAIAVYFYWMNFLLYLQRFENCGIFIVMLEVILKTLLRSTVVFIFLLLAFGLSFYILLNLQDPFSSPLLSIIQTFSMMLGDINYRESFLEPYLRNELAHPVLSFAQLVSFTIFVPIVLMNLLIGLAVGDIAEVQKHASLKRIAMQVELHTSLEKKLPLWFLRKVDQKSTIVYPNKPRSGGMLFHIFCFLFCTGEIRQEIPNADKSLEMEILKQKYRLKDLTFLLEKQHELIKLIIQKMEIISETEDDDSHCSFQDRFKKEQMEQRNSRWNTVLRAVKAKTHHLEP
ASSAY_PROCEDURE: two-electrode voltage clamp, Xenopus oocytes
QUANTITY: EC50 (nM)

I. COCCCN(C(=O)CCl)c1nc(-c2ccc(OC)cc2)cs1
II. CC(=O)O[C@@H]1C=C(C=O)[C@](O)(C=O)[C@@]2(C)CCCC(C)(C)[C@H]12
## Input When the recorded EC50 values are compared, which is smaller: that of I or that of II ? Identify your pick by its label.
## Output I
